assay: CBD trough plasma concentration in clinical trials CBD-CT1 and CBD-PT (LC-MS/MS); type: in vivo, patients; conditions: both sexes, human, plasma, oral, 600 mg/d
metric: concentration at 28 day (ng/mL)
The answer is to be given in ng/mL; state only the numeric part.

What the record says about C=C(C)[C@@H]1CCC(C)=C[C@H]1c1c(O)cc(CCCCC)cc1O : concentration at 28 day is 2.3

====

assay: CBD trough plasma concentration in clinical trials CBD-CT1 and CBD-PT (LC-MS/MS); assay type: in vivo, patients; settings: human, plasma, oral; Day 28, mean ± SD, CBD-CT1 + CBD-PT pooled
metric: concentration at 28 day (ng/mL)
The answer is to be given in ng/mL; state only the numeric part.

What the record says about C=C(C)[C@@H]1CCC(C)=C[C@H]1c1c(O)cc(CCCCC)cc1O : concentration at 28 day is 29.2

====

test: CBD trough plasma concentration in clinical trials CBD-CT1 and CBD-PT (LC-MS/MS); type: in vivo, patients; conditions: human, plasma; Day 28, mean ± SD, oral capsule 800 mg/d, trough
metric: concentration at 28 day (ng/mL)
The answer is to be given in ng/mL; state only the numeric part.

What the record says about C=C(C)[C@@H]1CCC(C)=C[C@H]1c1c(O)cc(CCCCC)cc1O : concentration at 28 day is 42.6

====

experiment: CBD trough plasma concentration in clinical trials CBD-CT1 and CBD-PT (LC-MS/MS); format: in vivo, patients; details: human, plasma, oral; Day 14, mean ± SD, CBD-CT1 + CBD-PT pooled
metric: concentration at 14 day (ng/mL)
The answer is to be given in ng/mL; state only the numeric part.

What the record says about C=C(C)[C@@H]1CCC(C)=C[C@H]1c1c(O)cc(CCCCC)cc1O : concentration at 14 day is 35.4

====

assay: CBD trough plasma concentration in clinical trials CBD-CT1 and CBD-PT (LC-MS/MS); type: in vivo, patients; settings: human, plasma; Day 14, mean ± SD, oral capsule 800 mg/d (titrated from 200 mg/d in first week), trough
metric: concentration at 14 day

What the record says about C=C(C)[C@@H]1CCC(C)=C[C@H]1c1c(O)cc(CCCCC)cc1O [CBD, cannabidiol] : concentration at 14 day is 50.5 ng/mL

====

experiment: CBD trough plasma concentration in clinical trials CBD-CT1 and CBD-PT (LC-MS/MS); format: in vivo, patients; conditions: both sexes, human, plasma; Day 14, mean ± SD, oral capsule 600 mg/d, cross-over with placebo
metric: concentration at 14 day (ng/mL)
The answer is to be given in ng/mL; state only the numeric part.

What the record says about C=C(C)[C@@H]1CCC(C)=C[C@H]1c1c(O)cc(CCCCC)cc1O [CBD, cannabidiol] : concentration at 14 day is 19.3

====

experiment: CBD trough plasma concentration in clinical trials CBD-CT1 and CBD-PT (LC-MS/MS); type: in vivo, patients; conditions: both sexes, human, plasma, oral, 600 mg/d; Day 21, mean ± SD, pooled (only PT measured)
metric: concentration at 21 day (ng/mL)
The answer is to be given in ng/mL; state only the numeric part.

What the record says about C=C(C)[C@@H]1CCC(C)=C[C@H]1c1c(O)cc(CCCCC)cc1O [CBD, cannabidiol] : concentration at 21 day is 4

====

Assay: CBD trough plasma concentration in clinical trials CBD-CT1 and CBD-PT (LC-MS/MS)
Format: in vivo, patients
Conditions: both sexes, human, plasma; Day 7, mean ± SD, oral capsule 600 mg/d, cross-over with placebo
Method: CBD was administered as an oral dose in a capsule formulation. The dose was increased during the first week from 200 mg/d to 800 mg/d (4×200 mg) and remained at this level for the rest of the study period. Due to serious unwanted effects, the dose could be reduced irreversibly to 600 mg/d starting with day 15. […] Dose applications, blood sampling, and assessment of PANSS followed the time schedule presented below. […]
metric: concentration at 7 day (ng/mL)
The answer is to be given in ng/mL; state only the numeric part.

What the record says about C=C(C)[C@@H]1CCC(C)=C[C@H]1c1c(O)cc(CCCCC)cc1O [CBD, cannabidiol] : concentration at 7 day is 14.1

Where do these numbers come from? They come from patent US20240192237A1.
